- System Name: MMP-2 (Homo sapiens, UniProt P08253)
- Construct: made in house; host or cells: MMP-2-transfected p2AHT2 cells
- Procedure Text: MMP-2 inhibition (in vitro Ki)
- Type: biochemical
- Assay Context: Table 9; read-out: MMP-2 Ki (IC-50)
- Sequence (P08253 110-660, species assumed): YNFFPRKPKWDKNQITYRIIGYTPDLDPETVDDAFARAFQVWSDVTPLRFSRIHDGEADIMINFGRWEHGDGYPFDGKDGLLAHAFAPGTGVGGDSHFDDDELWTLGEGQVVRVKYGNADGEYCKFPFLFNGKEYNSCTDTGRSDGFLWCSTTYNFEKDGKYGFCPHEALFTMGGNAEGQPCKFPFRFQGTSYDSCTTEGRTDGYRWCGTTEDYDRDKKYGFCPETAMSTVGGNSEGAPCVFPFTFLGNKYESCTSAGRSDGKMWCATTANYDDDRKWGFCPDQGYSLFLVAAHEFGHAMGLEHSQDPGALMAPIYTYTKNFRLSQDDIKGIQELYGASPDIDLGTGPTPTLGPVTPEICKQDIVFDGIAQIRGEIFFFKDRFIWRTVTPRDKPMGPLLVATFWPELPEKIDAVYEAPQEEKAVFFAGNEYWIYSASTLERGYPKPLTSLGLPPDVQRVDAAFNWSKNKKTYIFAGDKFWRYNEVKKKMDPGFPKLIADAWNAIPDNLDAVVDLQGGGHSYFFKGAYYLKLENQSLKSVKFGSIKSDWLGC
Property Measured: pKi
Answers are plain numbers, as −log10 of the molar value.

O=C(NO)C1(S(=O)(=O)N2CCC(c3ccc(C#CCc4ccccc4)cn3)CC2)CCOCC1 = 9.19
COCCN1CCC(C(=O)NO)(S(=O)(=O)N2CCC(c3ccc(CCC(F)(F)C(F)(F)F)cn3)CC2)CC1 = 9.03
CC(C)CC#Cc1ccc(C2CCN(S(=O)(=O)C3(C(=O)NO)CCOCC3)CC2)nc1 = 9.17
O=C(NO)C1(S(=O)(=O)N2CCC(c3ccc(CCC(F)(F)C(F)(F)F)cn3)CC2)CC=CC1 = 9.05
O=C(NO)C1(S(=O)(=O)N2CCC(c3ccc(CCC(F)(F)C(F)(F)F)cn3)CC2)CCN(C2CC2)CC1 = 9.19
O=C(NO)C1(S(=O)(=O)N2CCC(c3cnc(OCC4CC4)cn3)CC2)CCOCC1 = 8.87

Kindly review the next molecule as well.
Any idea what pKi was measured for O=C(CCCCC1CCN(S(=O)(=O)C2(C(=O)NO)CCOCC2)CC1)N1CCCC1 ?
6.87

====

Field: pKi. Provide a value for each of the compounds that follow.
- System Name: MMP-14 (Homo sapiens, UniProt P50281)
- Construct: The catalytic domain enzyme was expressed in E. coli inclusion bodies, solubilized in urea; made in house
- Procedure Text: In vitro MMP inhibition, Ki determination (fluorogenic substrate II)
- Format: biochemical
- Assay Context: value outside parentheses; read-out: MMP-14 Ki
pKi: −log10 of the molar value.

Solved entries:
O=C(NO)C1(S(=O)(=O)N2CCN(c3nc(-c4ccccc4)cs3)CC2)CCOCC1 = < 5.00
CCCCOc1ccc(N2CCN(S(=O)(=O)C3(C(=O)NO)CCNCC3)CC2)cc1 = < 5.00

Any idea what pKi was measured for CCCCc1ccc(C2CCN(S(=O)(=O)C3(C(=O)NO)CCNCC3)CC2)nc1 ?
< 5.00

====

- System Name: MMP-9 (Homo sapiens)
- Construct: made in house; host or cells: MMP-9-transfected HT1080 cells (spent media)
- Sequence (P14780 107-707 limits assumed): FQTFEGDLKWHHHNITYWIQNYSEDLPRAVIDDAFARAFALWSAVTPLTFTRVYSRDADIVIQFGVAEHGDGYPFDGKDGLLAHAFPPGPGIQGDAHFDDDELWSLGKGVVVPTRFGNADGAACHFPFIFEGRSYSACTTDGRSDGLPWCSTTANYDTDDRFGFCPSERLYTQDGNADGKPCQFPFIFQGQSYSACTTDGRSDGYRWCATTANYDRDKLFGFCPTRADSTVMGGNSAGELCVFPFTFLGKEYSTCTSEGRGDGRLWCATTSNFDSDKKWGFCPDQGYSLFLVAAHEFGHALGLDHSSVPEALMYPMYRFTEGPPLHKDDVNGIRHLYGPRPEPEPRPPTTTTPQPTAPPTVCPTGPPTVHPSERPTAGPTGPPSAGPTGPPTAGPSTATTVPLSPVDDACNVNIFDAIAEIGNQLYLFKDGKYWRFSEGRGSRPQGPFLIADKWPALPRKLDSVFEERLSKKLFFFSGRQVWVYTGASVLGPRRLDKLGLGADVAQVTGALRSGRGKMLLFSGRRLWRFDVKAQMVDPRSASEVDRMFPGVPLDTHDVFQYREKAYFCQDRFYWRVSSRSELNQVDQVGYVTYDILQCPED
- Procedure Text: In vitro MMP inhibition, Ki determination (fluorogenic substrate II)
- Type: biochemical
- Assay Context: human recombinant enzyme; 4 μM substrate II; room temperature, 1 hr
Where a name gives a salt, the structure may show the parent alone.
True if Ki is below 2 nM. False if not; exact matches included in False.

Example results:
CCOc1ccc(N2CCN(S(=O)(=O)C3(C(=O)NO)CCOCC3)CC2)cc1 [Example 3] = True
O=C(NO)C1(S(=O)(=O)N2CCN(c3ccc(CCC(F)(F)C(F)(F)F)cc3)CC2)CCOCC1 [Example 17, Hydrochloride] = True
CCCCCc1ccc(N2CCN(S(=O)(=O)C3(C(=O)NO)CCN(C(=O)C(F)(F)F)CC3)CC2)cc1 [Example 21, Hydrochloride] = False
CCCCc1ccc(C2CCN(S(=O)(=O)C3(C(=O)NO)CCOCC3)CC2)s1 [Example 19] = True
CCCCOc1ccc(N2CCN(S(=O)(=O)C3(C(=O)NO)CCN(CCOC)CC3)CC2)cc1F [Example 11, Dihydrochloride] = False

Answer whether the compound CCCCOc1ccc(C2CCN(S(=O)(=O)C3(C(=O)NO)CCN(CCOC)CC3)CC2)cc1 [Example 16, Hydrochloride] has Ki strictly less than 2 nM
True

Answer whether the compound CCCCCc1ccc(N2CCN(S(=O)(=O)C3(C(=O)NO)CCN(CC)CC3)CC2)cc1F [Example 22, Hydrochloride] has Ki strictly less than 2 nM
False

Answer whether the compound CCCCCc1ccc(N2CCN(S(=O)(=O)C3(C(=O)NO)CCOCC3)CC2)c(F)c1 [Example 23, Hydrochloride] has Ki strictly less than 2 nM
False

Answer whether the compound O=C(NO)C1(S(=O)(=O)N2CCN(c3ccc(OC(F)(F)C(F)F)cc3)CC2)CCOCC1 [Example 4] has Ki strictly less than 2 nM
True

Answer whether the compound CCCCc1cnc(N2CCN(S(=O)(=O)C3(C(=O)NO)CCOCC3)CC2)cn1 [Example 1, Dihydrochloride] has Ki strictly less than 2 nM
True

====

- System Name: MMP-2 (Homo sapiens)
- Construct: made in house; host or cells: MMP-2-transfected p2AHT2 cells
- Procedure Text: In vitro MMP inhibition, IC50 determination (fluorogenic substrate I)
- Format: biochemical
- Assay Context: value in parenthesis; read-out: MMP-2 (IC-50)
- Method: Several hydroxamic acids and salts thereof were analyzed in in vitro assays to determine their ability to inhibit the MMP cleavage of peptide substrates. […] and IC50 constants were calculated from the assayed hydroxamic acid-MMP interactions. […] The assays from which the IC50 determinations were made were performed as follows. […] Inhibition was measured as a reduction in fluorescent intensity as a function of MMP inhibitor concentration. […]
- Sequence (P08253 110-660): as the sequence (P08253 110-660, species assumed) above
fulfilled if IC50 is below 1 nM. not fulfilled if not; exact matches included in not fulfilled.

Example results:
CCCOc1ccc(N2CCN(S(=O)(=O)C3(C(=O)NO)CCN(CCOC)CC3)CC2)cc1F [Example 185] = fulfilled
CCOc1ccc(N2CCN(S(=O)(=O)C3(C(=O)NO)CCN(CCOC)CC3)CC2)cc1F [Example 184] = fulfilled
COCCN1CCC(C(=O)NO)(S(=O)(=O)N2CCN(c3ccc(CC4CCCCC4)cc3)CC2)CC1 [Example 181] = not fulfilled
CCC(CC)Cc1ccc(N2CCN(S(=O)(=O)C3(C(=O)NO)CCN(CCOC)CC3)CC2)cc1 [Example 188] = not fulfilled

In the following, a different compound is considered.
Answer whether the compound CCC(C)Cc1ccc(N2CCN(S(=O)(=O)C3(C(=O)NO)CCN(CCOC)CC3)CC2)cc1 (stereo not drawn) [Example 190] has IC50 strictly less than 1 nM
not fulfilled

====

- System Name: MMP-2 (Homo sapiens)
- Construct: made in house; host or cells: MMP-2-transfected p2AHT2 cells
- Procedure Text: In vitro MMP inhibition, Ki determination (fluorogenic substrate II)
- Format: biochemical
- Assay Context: value outside parentheses; read-out: MMP-2 Ki
- Protocol: Several hydroxamic acids and salts thereof were analyzed in in vitro assays to determine their ability to inhibit the MMP cleavage of peptide substrates. […] and IC50 constants were calculated from the assayed hydroxamic acid-MMP interactions. […] The assays from which the Ki determinations were made were performed as follows. […] In the absence of MMP inhibitory activity, substrate II was cleaved at the Gly-Leu bond resulting in an increase of relative fluorescence. […]
class 1 if Ki is below 2 nM. class 0 if not; exact matches included in class 0.

CCCCOc1cccc(N2CCN(S(=O)(=O)C3(C(=O)NO)CCOCC3)CC2)c1 [Example 354] = class 0
CCCCOc1ccc(N2CCN(S(=O)(=O)C3(C(=O)NO)CCN(C(=O)C4CC4)CC3)CC2)cc1 [Example 260] = class 1
COCCN1CCC(C(=O)NO)(S(=O)(=O)N2CCC(c3ccc(CCCC(F)(F)F)cc3)CC2)CC1 [Example 310] = class 1
CCCCOc1ccc(N2CCN(S(=O)(=O)C3(C(=O)NO)CCNCC3)CC2)cc1 [Example 276] = class 0
CCCCOc1ccc(N2CCN(S(=O)(=O)C3(C(=O)NO)CCN(C(=O)c4ccncc4)CC3)CC2)cc1 [Example 259] = class 1

Answer whether the compound O=C(NO)C1(S(=O)(=O)N2CCN(c3ncc(-c4ccc(F)cc4)s3)CC2)CCOCC1 [Example 345] has Ki strictly less than 2 nM
class 1

Answer whether the compound C#CCN1CCC(C(=O)NO)(S(=O)(=O)N2CCN(c3ccc(OCCCC)cc3)CC2)CC1 [Example 303] has Ki strictly less than 2 nM
class 1

====

- System Name: MMP-13 (Homo sapiens)
- Construct: made in house; host or cells: baculovirus / insect cells
- Procedure Text: In vitro MMP inhibition, Ki determination (fluorogenic substrate II)
- Format: biochemical
- Assay Context: value outside parentheses; read-out: MMP-13 Ki
Y if Ki is below 0.4 nM. N if not; exact matches included in N.

Example results:
O=C(NO)C1(S(=O)(=O)N2CCC(c3ccc(-c4ccc(F)cc4F)cn3)CC2)CCOCC1 [Example 308] = N
COCCN1CCC(C(=O)NO)(S(=O)(=O)N2CCN(c3ccc(Oc4ccccc4)cc3)CC2)CC1 [Example 287] = N
O=C(NO)C1(S(=O)(=O)N2CCN(c3ncc(-c4ccc(Cl)c(Cl)c4)s3)CC2)CCOCC1 [Example 369] = N
CCCCOc1ccc(N2CCN(S(=O)(=O)C3(C(=O)NO)CCN(c4ccc(C)cc4)CC3)CC2)cc1 [Example 295] = N
N#Cc1ccc(-c2cnc(N3CCN(S(=O)(=O)C4(C(=O)NO)CCOCC4)CC3)s2)cc1 [Example 399] = Y
O=C(NO)C1(S(=O)(=O)N2CCN(c3ccc(Br)cn3)CC2)CCOCC1 [Example 331] = Y

Answer whether the compound CCCCOc1ccc(N2CCN(S(=O)(=O)C3(C(=O)NO)CCN(C(=O)c4ccncc4)CC3)CC2)cc1 [Example 259] has Ki strictly less than 0.4 nM
Y

Answer whether the compound CCCCOc1ccc(N2CCN(S(=O)(=O)C3(C(=O)NO)CCN(Cc4cccnc4)CC3)CC2)cc1F [Example 293] has Ki strictly less than 0.4 nM
Y
